Species: Rattus norvegicus
assay_overview: Open TG-GATES - Regimen: Daily Repeat
Type: toxicity, organism-based, Sprague-Dawley
Set-up: regimen Daily Repeat, gender Male, age 6 weeks
measurement_context: in vivo, po, 0 mg/kg, […], tissue Plasma, route gavage, dose level Control, time 7 day

molecule: O=C(OC[C@H]1O[C@@H](OC(=O)c2cc(O)c(O)c(OC(=O)c3cc(O)c(O)c(O)c3)c2)[C@H](OC(=O)c2cc(O)c(O)c(OC(=O)c3cc(O)c(O)c(O)c3)c2)[C@@H](OC(=O)c2cc(O)c(O)c(OC(=O)c3cc(O)c(O)c(O)c3)c2)[C@@H]1OC(=O)c1cc(O)c(O)c(OC(=O)c2cc(O)c(O)c(O)c2)c1)c1cc(O)c(O)c(OC(=O)c2cc(O)c(O)c(O)c2)c1 [TANNIC ACID]
units_label: meq/L
K: 4.4

molecule: Brc1ccccc1 [BROMOBENZENE]
units_label: meq/L
K: 3.9

* * *

Species: Rattus norvegicus
assay_overview: Open TG-GATES - Regimen: Single
Assay type: toxicity, organism-based, Sprague-Dawley
Parameters: regimen Single, gender Male, age 6 weeks
measurement_context: in vivo, po, 300 mg/kg, 3 h, tissue Plasma, route gavage, dose level Middle
Threshold 100 meq/L: Cl strictly smaller gives label 1, otherwise label 0.

item_smiles: O=C(OC[C@H]1O[C@@H](OC(=O)c2cc(O)c(O)c(OC(=O)c3cc(O)c(O)c(O)c3)c2)[C@H](OC(=O)c2cc(O)c(O)c(OC(=O)c3cc(O)c(O)c(O)c3)c2)[C@@H](OC(=O)c2cc(O)c(O)c(OC(=O)c3cc(O)c(O)c(O)c3)c2)[C@@H]1OC(=O)c1cc(O)c(O)c(OC(=O)c2cc(O)c(O)c(O)c2)c1)c1cc(O)c(O)c(OC(=O)c2cc(O)c(O)c(O)c2)c1
category_label: label 0

item_smiles: COC(=O)C1=C(C)NC(C)=C(C(=O)OC)C1c1ccccc1[N+](=O)[O-]
category_label: label 1

item_smiles: CN/C(=N/CCSCc1nc[nH]c1C)NC#N
category_label: label 0

item_smiles: Cc1nnc2n1-c1ccc(Cl)cc1C(c1ccccc1Cl)=NC2
category_label: label 0

item_smiles: CNC(=C[N+](=O)[O-])NCCSCc1ccc(CN(C)C)o1
category_label: label 0

* * *

Species on record: Rattus norvegicus
assay_overview: Open TG-GATES - Regimen: Single
Assay type: toxicity, organism-based, Sprague-Dawley
Set-up: regimen Single, gender Male, age 6 weeks
measurement_context: in vivo, po, 300 mg/kg, 3 h, tissue Blood, route gavage, dose level Middle
Threshold 600 x10_4/ul: RBC strictly smaller gives t, otherwise f.

compound: O=C(OC[C@H]1O[C@@H](OC(=O)c2cc(O)c(O)c(OC(=O)c3cc(O)c(O)c(O)c3)c2)[C@H](OC(=O)c2cc(O)c(O)c(OC(=O)c3cc(O)c(O)c(O)c3)c2)[C@@H](OC(=O)c2cc(O)c(O)c(OC(=O)c3cc(O)c(O)c(O)c3)c2)[C@@H]1OC(=O)c1cc(O)c(O)c(OC(=O)c2cc(O)c(O)c(O)c2)c1)c1cc(O)c(O)c(OC(=O)c2cc(O)c(O)c(O)c2)c1 [TANNIC ACID]
category_label: t

compound: Cc1nnc2n1-c1ccc(Cl)cc1C(c1ccccc1Cl)=NC2 [TRIAZOLAM]
category_label: f
